Target: KDR (VEGFR2) (Homo sapiens)
Construct: purchased Invitrogen
Sequence (P35968 20-1356): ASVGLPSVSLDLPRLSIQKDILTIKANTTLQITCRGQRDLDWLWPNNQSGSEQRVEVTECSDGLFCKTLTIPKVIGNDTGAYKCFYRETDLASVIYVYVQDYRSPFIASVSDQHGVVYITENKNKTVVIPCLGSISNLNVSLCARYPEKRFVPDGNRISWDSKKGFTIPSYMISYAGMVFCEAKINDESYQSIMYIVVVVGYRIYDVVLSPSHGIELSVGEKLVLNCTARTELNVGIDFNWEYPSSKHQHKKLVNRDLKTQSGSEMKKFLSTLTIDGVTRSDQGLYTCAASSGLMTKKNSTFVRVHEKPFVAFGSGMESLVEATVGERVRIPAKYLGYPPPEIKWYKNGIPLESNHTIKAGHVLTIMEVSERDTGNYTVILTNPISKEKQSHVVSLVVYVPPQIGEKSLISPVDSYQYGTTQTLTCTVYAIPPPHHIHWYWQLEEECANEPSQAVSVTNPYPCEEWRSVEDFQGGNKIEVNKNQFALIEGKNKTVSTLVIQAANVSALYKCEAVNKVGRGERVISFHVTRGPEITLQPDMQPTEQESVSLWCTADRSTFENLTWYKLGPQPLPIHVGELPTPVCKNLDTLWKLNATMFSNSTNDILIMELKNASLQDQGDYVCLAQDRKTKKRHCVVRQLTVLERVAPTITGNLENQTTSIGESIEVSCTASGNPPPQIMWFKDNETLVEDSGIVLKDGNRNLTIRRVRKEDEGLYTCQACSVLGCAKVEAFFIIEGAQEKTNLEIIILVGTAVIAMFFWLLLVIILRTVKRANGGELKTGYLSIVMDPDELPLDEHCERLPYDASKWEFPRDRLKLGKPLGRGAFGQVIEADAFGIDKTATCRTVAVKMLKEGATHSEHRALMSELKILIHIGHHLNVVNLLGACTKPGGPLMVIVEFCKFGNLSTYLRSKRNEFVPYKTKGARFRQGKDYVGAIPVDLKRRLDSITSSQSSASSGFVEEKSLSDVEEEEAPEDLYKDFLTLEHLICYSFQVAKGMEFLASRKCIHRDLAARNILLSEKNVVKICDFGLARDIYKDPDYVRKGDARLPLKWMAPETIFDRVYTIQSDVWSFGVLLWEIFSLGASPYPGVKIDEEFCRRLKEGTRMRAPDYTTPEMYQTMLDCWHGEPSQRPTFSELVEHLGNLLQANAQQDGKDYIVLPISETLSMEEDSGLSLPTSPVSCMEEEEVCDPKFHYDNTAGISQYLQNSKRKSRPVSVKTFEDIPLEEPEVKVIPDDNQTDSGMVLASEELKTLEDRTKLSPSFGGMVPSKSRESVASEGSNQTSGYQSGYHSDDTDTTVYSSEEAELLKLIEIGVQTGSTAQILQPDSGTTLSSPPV
Assay: In vitro kinase assay (Z'-LYTE, Invitrogen)
Assay type: biochemical
Conditions: compound at 100 nM, ATP Km apparent, read-out: % of inhibition of the kinase compared to the control
Procedure: The inhibitory activity of the compounds on 7 kinases (BRAF, EGFR (ErbB1), EGFR (ErbB1) T790M L858R, FGFR2, KDR (VEGFR2), PDGFRA (PDGFR alpha), SRC) was evaluated by Invitrogen using the Z′-LYTE® technology. Briefly, the Z′-LYTE® biochemical assay employs a fluorescence-based, coupled-enzyme format and is based on the differential sensitivity of phosphorylated and non-phosphorylated peptides to proteolytic cleavage. […]
The entries below are paired with their reported inhibition at 0.1 µM.

Solved cases below.
compound	measured_target	observed
COC(=O)c1cc2cc(CCc3cc(NC(=O)c4ccc(CN5CCC(N(C)C)C5)c(C(F)(F)F)c4)ccc3C)cnc2[nH]1 (stereo not shown)	KDR (VEGFR2) (Homo sapiens)	≥ 50%
CC(=O)c1cc2cc(CCc3cc(NC(=O)c4ccc(CN5CCN(C)CC5)cc4)ccc3C)cnc2[nH]1	KDR (VEGFR2) (Homo sapiens)	≥ 50%
COC(=O)c1cc2cc(CCc3cc(NC(=O)c4ccc(CN5CCN(C)CC5)c(C(F)(F)F)c4)ccc3C)cnc2[nH]1	KDR (VEGFR2) (Homo sapiens)	≥ 50%

Query string: Quick check: inhibition at 0.1 µM of "COC(=O)c1cc2cc(CNc3cc(NC(=O)c4ccc(CN5CCN(C)CC5)cc4)ccc3C)cnc2[nH]1" ?
Result string: < 50%

Query string: Quick check: inhibition at 0.1 µM of "CC(=O)c1cc2cc(CCc3cc(NC(=O)c4cncc(C(F)(F)F)c4)ccc3C)cnc2[nH]1" ?
Result string: ≥ 50%

Query string: Quick check: inhibition at 0.1 µM of "COC(=O)c1cc2cc(C=Nc3cc(NC(=O)c4ccc(CN5CCN(C)CC5)c(C(F)(F)F)c4)ccc3C)cnc2[nH]1" ?
Result string: ≥ 50%

Query string: Quick check: inhibition at 0.1 µM of "COC(=O)c1cc2cc(CCc3cccc(NC(=O)c4ccc5[nH]nnc5c4)c3)cnc2[nH]1" ?
Result string: < 50%

Query string: Quick check: inhibition at 0.1 µM of "COC(=O)c1cc2cc(CCc3cccc(CNC(=O)c4ccc(CN5CCN(C)CC5)c(C(F)(F)F)c4)c3)cnc2[nH]1" ?
Result string: ≥ 50%

Query string: Quick check: inhibition at 0.1 µM of "COC(=O)c1cc2cc(COc3cc(NC(=O)c4ccc(CN5CCN(C)CC5)c(C(F)(F)F)c4)ccc3C)cnc2[nH]1" ?
Result string: ≥ 50%

Query string: Quick check: inhibition at 0.1 µM of "COC(=O)c1cc2cc(CCc3cccc(NC(=O)c4ccc5[nH]ccc5c4)c3)cnc2[nH]1" ?
Result string: ≥ 50%

Query string: Quick check: inhibition at 0.1 µM of "COC(=O)c1cc2cc(CCc3cc(NC(=O)c4cncc(C(F)(F)F)c4)ccc3Cl)cnc2[nH]1" ?
Result string: ≥ 50%

Query string: Quick check: inhibition at 0.1 µM of "COC(=O)c1cc2cc(CCc3cccc(NC(=O)c4cncc(C(F)(F)F)c4)c3)cnc2[nH]1" ?
Result string: ≥ 50%

Query string: Quick check: inhibition at 0.1 µM of "CC(=O)c1cc2cc(C(=O)Nc3cc(NC(=O)c4cc(-n5cnc(C)c5)cc(C(F)(F)F)c4)ccc3C)cnc2[nH]1" ?
Result string: < 50%

Query string: Quick check: inhibition at 0.1 µM of "CC(=O)c1cc2cc(CCc3cc(NS(=O)(=O)c4cccc(C(F)(F)F)c4)ccc3C)cnc2[nH]1" ?
Result string: < 50%

Query string: Quick check: inhibition at 0.1 µM of "CC(=O)c1cc2cc(C(=O)Nc3cc(NC(=O)c4ccc(CN5CCN(C)CC5)c(C(F)(F)F)c4)ccc3C)cnc2[nH]1" ?
Result string: < 50%

Query string: Quick check: inhibition at 0.1 µM of "COC(=O)c1cc2cc(CNC(=O)c3cc(NC(=O)c4ccc(CN5CCN(C)CC5)c(C(F)(F)F)c4)ccc3C)cnc2[nH]1" ?
Result string: < 50%

Query string: Quick check: inhibition at 0.1 µM of "COC(=O)c1cc2cc(CNc3cc(NC(=O)c4ccc(CN5CCN(C)CC5)c(C(F)(F)F)c4)ccc3C)cnc2[nH]1" ?
Result string: ≥ 50%

Query string: Quick check: inhibition at 0.1 µM of COC(=O)c1cc2cc(CCc3cc(NC(=O)C4CCC(C(F)(F)F)CC4)ccc3C)cnc2[nH]1 (stereo not shown) ?
Result string: < 50%
